System: IL-8
Assay: Glucocorticoid transrepression assay, IL-8 inhibition (TR)
Assay type: cell-based
Conditions: Homo sapiens; Table 1; NCl-H292 cells, TNFα 10 ng/ml
quantity: IC50

- CC12Cc3cnn(-c4ccccc4)c3C=C1CCC1C2[C@@H](O)CC2(C)C1CC[C@]2(O)C(=O)COc1nc2ccccc2s1 (stereo partly shown) [Compound 120]: 0.06 to 20 nM
- CC12Cc3cnn(-c4ccc(F)cc4)c3C=C1CCC1C2[C@@H](O)CC2(C)C1CC[C@]2(O)C(=O)CSc1nc2ccc(N)cc2s1 (stereo partly shown) [Compound 102]: 0.06 to 20 nM
- CC12Cc3cnn(CCC#N)c3C=C1CCC1C2[C@@H](O)CC2(C)C1CC[C@]2(O)C(=O)CSc1ncccn1 (stereo partly shown) [Compound 54]: 401 to 1000 nM
- COc1ccc(-n2ncc3c2C=C2CCC4C([C@@H](O)CC5(C)C4CC[C@]5(O)C(=O)CSc4nc5cccnc5s4)C2(C)C3)cc1 (stereo partly shown) [Compound 87]: 66 to 400 nM
- CC12Cc3cnn(CCC#N)c3C=C1CCC1C2[C@@H](O)CC2(C)C1CC[C@]2(O)C(=O)CSc1nc2ccccc2[nH]1 (stereo partly shown) [Compound 52]: 401 to 1000 nM
- CC12Cc3cnn(C4CCCCC4)c3C=C1CCC1C2[C@@H](O)CC2(C)C1CC[C@]2(O)C(=O)CSc1ncccn1 (stereo partly shown) [Compound 126]: 0.06 to 20 nM
- CC12Cc3cnn(-c4ccccc4)c3C=C1CCC1C2[C@@H](O)CC2(C)C1CC[C@]2(O)C(=O)CSc1ccc2ccccc2n1 (stereo partly shown) [Compound 15]: 0.06 to 20 nM
- Cn1c(SCC(=O)[C@@]2(O)CCC3C4CCC5=Cc6c(cnn6-c6ccccc6)CC5(C)C4[C@@H](O)CC32C)nc2ccccc21 (stereo partly shown) [Compound 14]: 0.06 to 20 nM
- CC12Cc3cnn(-c4ccc(F)cc4)c3C=C1CCC1C2[C@@H](O)CC2(C)C1CC[C@]2(O)C(=O)COc1nccc2ccccc12 (stereo partly shown) [Compound 114]: 0.06 to 20 nM
- CC12Cc3cnn(-c4ccc(F)cc4)c3C=C1CCC1C2[C@@H](O)CC2(C)C1CC[C@]2(O)C(=O)CSc1nccc2ccccc12 (stereo partly shown) [Compound 11]: 0.06 to 20 nM
- CC12Cc3cnn(-c4ccc(F)cc4)c3C=C1CCC1C2[C@@H](O)CC2(C)C1CC[C@]2(OC(=O)c1ccco1)C(=O)CSc1nc2ncccc2o1 (stereo partly shown) [Compound 99]: 0.06 to 20 nM
- CC12Cc3cnn(-c4ccccc4)c3C=C1CCC1C2[C@@H](O)CC2(C)C1CC[C@]2(O)C(=O)CSc1nc2ccccc2o1 (stereo partly shown) [Compound 19]: 401 to 1000 nM
- Cc1cccc(SCC(=O)[C@@]2(O)CCC3C4CCC5=Cc6c(cnn6-c6ccccn6)CC5(C)C4[C@@H](O)CC32C)n1 (stereo partly shown) [Compound 47]: 66 to 400 nM
- CC12Cc3cnn(C4CCOCC4)c3C=C1CCC1C2[C@@H](O)CC2(C)C1CC[C@]2(O)C(=O)CSc1ccc2ccccc2n1 (stereo partly shown) [Compound 74]: 66 to 400 nM
- COc1ccc(-n2ncc3c2C=C2CCC4C([C@@H](O)CC5(C)C4CC[C@]5(O)C(=O)CSc4nc5ccccc5n4C)C2(C)C3)cc1 (stereo partly shown) [Compound 86]: 66 to 400 nM
- CC12Cc3cnn(C4CCOCC4)c3C=C1CCC1C2[C@@H](O)CC2(C)C1CC[C@]2(O)C(=O)CSc1nc2cccnc2s1 (stereo partly shown) [Compound 71]: 66 to 400 nM
- CC12Cc3cnn(-c4ccccn4)c3C=C1CCC1C2[C@@H](O)CC2(C)C1CC[C@]2(O)C(=O)CSc1nc2ccccc2s1 (stereo partly shown) [Compound 35]: 66 to 400 nM
- Cc1cccc(SCC(=O)[C@@]2(O)CCC3C4CCC5=Cc6c(cnn6CCC#N)CC5(C)C4[C@@H](O)CC32C)n1 (stereo partly shown) [Compound 61]: 66 to 400 nM
- Cn1c(SCC(=O)[C@@]2(O)CCC3C4CCC5=Cc6c(cnn6CCC#N)CC5(C)C4[C@@H](O)CC32C)nc2ccccc21 (stereo partly shown) [Compound 48]: 66 to 400 nM
- CC12Cc3cnn(CCC#N)c3C=C1CCC1C2[C@@H](O)CC2(C)C1CC[C@]2(O)C(=O)CSc1nc2ccccc2o1 (stereo partly shown) [Compound 50]: 66 to 400 nM
- CC12Cc3cnn(-c4ccc(F)cc4)c3C=C1CCC1C2[C@@H](O)CC2(C)C1CC[C@]2(O)C(=O)COc1nc2ccccc2o1 (stereo partly shown) [Compound 104]: 0.06 to 20 nM
- CC12Cc3cnn(C4CCCCC4)c3C=C1CCC1C2[C@@H](O)CC2(C)C1CC[C@]2(O)C(=O)CSc1nc(-c2ccccc2)cs1 (stereo partly shown) [Compound 133]: 21 to 65 nM
- Cn1c(SCC(=O)[C@@]2(O)CCC3C4CCC5=Cc6c(cnn6-c6ccc(F)cc6)CC5(C)C4[C@@H](O)CC32C)nc2ccccc21 (stereo partly shown) [Compound 2]: 0.06 to 20 nM
- CC12Cc3cnn(C4CCOCC4)c3C=C1CCC1C2[C@@H](O)CC2(C)C1CC[C@]2(O)C(=O)CSc1nc2ncccc2o1 (stereo partly shown) [Compound 72]: 21 to 65 nM
- Cc1ccnc(SCC(=O)[C@@]2(O)CCC3C4CCC5=Cc6c(cnn6CCC#N)CC5(C)C4[C@@H](O)CC32C)n1 (stereo partly shown) [Compound 59]: 66 to 400 nM
